Target Desc: rat spinal cord membrane receptor
Measurement Description: competition with [125I]D-Tyr-NPFF, rat spinal cord membranes
Non-standard residues stand in square brackets, D forms with d. No end group written: not given here. NMeF = CN[C@@H](Cc1ccccc1)C(=O)O
// pKi lookup, one value per entry
Please reply with the number alone, leaving off any unit.

GWTLNSAGYLLGPHAVGNHRSFSDKNGLTS (peptide, UniProt P22466 33-62, looked up, species assumed, Galanin) [galanin]: 5
FMRF-NH2 [FMRF amide]: 8.49
H-KNQFIRF-NH2 (Printed as H2N-Lys-Asn-Gln-Phe-Ile-Arg-Phe-NH2; also called FMRF-like peptide) [AF-1]: 7.56
APLEPVYPGDNATPEQMAQYAADLRRYINMLTRPRY (peptide, UniProt P01298 30-65, looked up) [hPP]: 5

### Prompt Using the record for PDVDHVFLRF-NH2 (also called SchistFLRF) [Schisto(FLRFNH2)] , report its pKi.
### Response 6.39

### Prompt Can you handle YGGFMRF-OH [Met5-Arg6-Phe7-Enk-OH] next?
### Response 5

### Prompt And then MPRVRSLFQEQEEPEPGMEEAGEMEQKQLQ (peptide, UniProt Q13519 98-127, looked up, species assumed, Nocistatin) [nocistatin] , what is it?
### Response 5

### Prompt Try this binder next: YGGFMRF-NH2 (also called Met-Enk-NH2; Met^5, Arg^6, Phe^7-NH2 enkephalinamide) [Met5-Arg6-Phe7-Enk-NH2]
### Response 8.4

### Prompt Likewise for AGEGLSSPYWSLAAPQRF-NH2 (also called [Y^9]A18Famide; [tyr^9]A-18-F-amide) [[Y^9]A18Fa] ?
### Response 8.5

### Prompt Quick one: [dY]L[NMeF]QPQRF-NH2 (N-terminus assumed; SMILES CC(C)C[C@H](NC(=O)[C@H](N)Cc1ccc(O)cc1)C(=O)N(C)[C@@H](Cc1ccccc1)C(=O)N[C@@H](CCC(N)=O)C(=O)N1CCC[C@H]1C(=O)N[C@@H](CCC(N)=O)C(=O)N[C@@H](CCCNC(=N)N)C(=O)N[C@@H](Cc1ccccc1)C(N)=O, also called D-Tyr-NPFF; (1DMe)Y8Fa) [(D-Tyr^1-(NMe)Phe^3)NPFF]
### Response 9.72

### Prompt Same lookup for DYMGWMDF (peptide, UniProt P06307 96-103, looked up, species assumed, ends and bridges not checked) [CCK8] , please.
### Response 5

### Prompt What do you get for YPLG (modifications not checked) [Tyr-MIF-1] ?
### Response 5
